Molecular target: T1, Human recombinant CD5L protein (Sino Biological, Catalog Number 10791-H08H) (human, UniProt O43866 20-347)
T1 construct: Bought protein; also called human CD5L; CD5L-His; not shown: 6xHIS-tag
T1 sequence (looked up): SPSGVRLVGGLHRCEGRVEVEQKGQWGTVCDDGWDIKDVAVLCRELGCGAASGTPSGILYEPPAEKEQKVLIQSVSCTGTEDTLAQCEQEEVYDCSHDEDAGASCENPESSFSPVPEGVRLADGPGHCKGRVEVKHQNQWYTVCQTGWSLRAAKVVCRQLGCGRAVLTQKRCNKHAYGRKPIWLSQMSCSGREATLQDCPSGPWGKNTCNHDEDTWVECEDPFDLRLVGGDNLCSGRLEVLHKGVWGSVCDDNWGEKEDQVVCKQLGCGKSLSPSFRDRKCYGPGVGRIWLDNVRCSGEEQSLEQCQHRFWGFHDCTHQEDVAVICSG
Experiment: BLI (Octet RED96), antibody on Protein A biosensors, CD5L-His in solution, global fit
Recorded measurements of koff, one per entry

Before answering, review these 2 worked examples.
CD5L-35Hu-1 (antibody, V domains shown, also called humanized CD5L-35Hu mAb (CD5L-35Hu-H1 + CD5L-35Hu-K1)) VH: QVQLVESGGGVVQPGRSLRLSCAASGIDLSDYYMTWVRQAPGKGLEYIGIIYASGNAYFASWAKGRFTISRDSSTNTLFLQMNSLRAEDTAVYYCARNIGGSSNLWGQGTLVTVSS VL: AIQLTQSPSSLSASVGDRVTITCQASERIYNNLAWYQQKPGKAPKLLFYSASTLASGVPSRFSGSGSGTDFTLTISSLQPEDFATYYCQCTGYGTTYGLVFGGGTKVEIK    < 1e-07 s⁻¹
CD5L-35Hu-2 (antibody, V domains shown, also called humanized CD5L-35Hu mAb (CD5L-35Hu-H1 + CD5L-35Hu-K2)) VH: QVQLVESGGGVVQPGRSLRLSCAASGIDLSDYYMTWVRQAPGKGLEYIGIIYASGNAYFASWAKGRFTISRDSSTNTLFLQMNSLRAEDTAVYYCARNIGGSSNLWGQGTLVTVSS VL: ELQLTQTPSSLSASVGDRVTIKCQASERIYNNLAWYQQKPGKAPKLLFYSASTLASGVPSRFSGSGSGTDFTLTISSLQPEDFATYYCQCTGYGTTYGLVFGGGTKVEIK    < 1e-07 s⁻¹

// next item, koff requested
Give the measured koff of CD5L-35Hu-4 (antibody, V domains shown, also called humanized CD5L-35Hu mAb (CD5L-35Hu-H2 + CD5L-35Hu-K2)) VH: QVQLVESGGGVVQPGRSLRLSCAASGIDLSDYYMTWVRQAPGKGLEYIGIIYASGNAYFASWAKGRFTISRDNSTNTVFLQMNSLRAEDTAVYYCARNIGGSSNLWGQGTLVTVSS VL: ELQLTQTPSSLSASVGDRVTIKCQASERIYNNLAWYQQKPGKAPKLLFYSASTLASGVPSRFSGSGSGTDFTLTISSLQPEDFATYYCQCTGYGTTYGLVFGGGTKVEIK .
< 1e-07 s⁻¹
